test system: MYB mRNA; experiment: RT-qPCR splicing assay, MYB mRNA canonical (CJ) and alternative (AJ) junction; assay type: cell-based, human; conditions: Homo sapiens, RT-qPCR, MYB canonical junction mRNA decrease; read-out: MYB CJ (decrease in canonical junction mRNA, IC50)
pIC50: −log10 of the molar value.
observable: pIC50

Cc1cn2nc(-c3ncc4cc(N5C[C@H](C)N[C@@H](C)C5)ccc4n3)cc(C)c2n1 (single isomer, unassigned) | 5.00 to 6.00

Query: Indicate the recorded pIC50 value for this compound: C[C@H]1CN(c2ccc3nc(-c4cc5cn(C)nc5cc4O)ncc3c2)CC2(CC2)N1 (single isomer, unassigned)
Result: 6.00 to 7.00

Query: Tell me pIC50 reported for Cc1cn2cc(-c3ncc4cc(N5C[C@H](C)N(C)[C@@H](C)C5)ccc4n3)cc(F)c2n1
Result: 6.00 to 7.00

====

Items are presented alongside their recorded IC50.
system: HTT; assay: HiBiT protein abundance assay, HTT (K562 HiBiT knock-in); format: cell-based, human; details: HiBiT knock-in K562 cells, 24 hours, top dose 10 μM

Cc1c(O)c(-c2ncc3cc(N4C[C@@H](C)N[C@H](C)C4)ccc3n2)cc2cn(C)nc12 (single isomer, unassigned) | 100 to 1000 nM
Cn1cc2cc(-c3ccc4nc(N5CC[C@@H](NCC6CC6)C5)ccc4n3)c(O)c(F)c2n1 (single isomer, unassigned) | < 100 nM
Cc1c(O)c(-c2ccc3nc(N4CC[C@@H](NC5CC5)C4)ncc3n2)cc2cn(C)nc12 | < 100 nM
Cn1cc2cc(-c3ccc4nc(C5CCNCC5)ccc4n3)c(F)cc2n1 | 1000 to 10000 nM
Cc1nc2c(C)c(O)c(-c3ccc4nc(N5CC[C@@H](NC6CC6)C5)ccc4n3)cc2o1 | < 100 nM
Cc1c(O)c(-c2ccc3nc(N4CCC(NC(C)C)C4)ccc3n2)cc2cn(C)nc12 (stereo not shown) | < 100 nM

Could you now consider this next compound?
Query: Report measured IC50; entry is Cc1nc2c(F)c(O)c(-c3ccc4nc(N5CC[C@@H](NC6CC6)C5)ccc4n3)cc2o1
Result: < 100 nM

====

Recorded pIC50 by entry
test system: MYB; test: HiBiT protein abundance assay, MYB (K562 HiBiT knock-in); format: cell-based, human; conditions: HiBiT knock-in K562 cells, 24 hours, top dose 10 μM
pIC50: −log10 of the molar value.

Query: // fetch pIC50 given entry Cc1c(O)c(-c2ncc3nc(C4CCNCC4)ccc3n2)cc2cn(C)nc12
Result: 6.00 to 7.00

Query: Supply recorded pIC50 for CNC1CCN(c2ccc3nc(-c4cc5oc(C)nc5cc4O)ccc3n2)CC1 here.
Result: 5.00 to 6.00

Query: Specify reported pIC50 for the molecule shown: Cc1nc2c(C)c(O)c(-c3ccc4nc(N5CC[C@@H](NC(C)(C)C)C5)ncc4n3)cc2o1
Result: > 7.00

Query: Given Cc1c(O)c(-c2ccc3nc(N4CC[C@@H](NC5CC5)C4)ccc3n2)cc2cn(C)nc12 , respond with its pIC50.
Result: > 7.00

Query: Kindly indicate its recorded pIC50. Item: Cc1c(O)c(-c2ncc3nc(N4CCC5(CCN5)C4)ccc3n2)cc2cn(C)nc12 (stereo not drawn)
Result: 6.00 to 7.00

Query: Return the recorded pIC50 value; entry: Cn1cc2cc(-c3ccc4nc(N5CC[C@@H](NC6CC6)C5)ccc4n3)c(O)c(F)c2n1 (single isomer, unassigned)
Result: > 7.00

Query: Consider the molecule Cc1nc2c(C)c(O)c(-c3ccc4nc(N5CC[C@H](NC6(C)CC6)C5)ccc4n3)cc2o1 (single isomer, unassigned) and give its recorded pIC50.
Result: 6.00 to 7.00

Query: State its pIC50 for this molecule: Cc1c(O)c(-c2nc(-c3nnc[nH]3)c3cc(N4CCNCC4)ccc3n2)cc2cn(C)nc12
Result: 6.00 to 7.00
